// data source = paper PMC5667929

systemTested: AbdA (Hox);Grh (Drosophila melanogaster?;Drosophila …, UniProt P29555;P13002 261-590;551-1333, |)
Sequence (P29555 261-590, chain 1 of 2): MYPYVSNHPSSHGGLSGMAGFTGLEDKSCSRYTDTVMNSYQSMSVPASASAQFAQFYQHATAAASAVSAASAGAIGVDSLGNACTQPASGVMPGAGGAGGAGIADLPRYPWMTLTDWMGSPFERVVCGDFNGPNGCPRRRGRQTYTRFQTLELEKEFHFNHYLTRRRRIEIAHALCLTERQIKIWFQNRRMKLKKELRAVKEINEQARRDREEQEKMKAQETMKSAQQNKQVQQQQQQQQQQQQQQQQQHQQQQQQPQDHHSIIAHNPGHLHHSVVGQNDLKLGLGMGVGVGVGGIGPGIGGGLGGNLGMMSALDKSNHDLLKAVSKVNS
Sequence (P13002 551-1333, chain 2 of 2): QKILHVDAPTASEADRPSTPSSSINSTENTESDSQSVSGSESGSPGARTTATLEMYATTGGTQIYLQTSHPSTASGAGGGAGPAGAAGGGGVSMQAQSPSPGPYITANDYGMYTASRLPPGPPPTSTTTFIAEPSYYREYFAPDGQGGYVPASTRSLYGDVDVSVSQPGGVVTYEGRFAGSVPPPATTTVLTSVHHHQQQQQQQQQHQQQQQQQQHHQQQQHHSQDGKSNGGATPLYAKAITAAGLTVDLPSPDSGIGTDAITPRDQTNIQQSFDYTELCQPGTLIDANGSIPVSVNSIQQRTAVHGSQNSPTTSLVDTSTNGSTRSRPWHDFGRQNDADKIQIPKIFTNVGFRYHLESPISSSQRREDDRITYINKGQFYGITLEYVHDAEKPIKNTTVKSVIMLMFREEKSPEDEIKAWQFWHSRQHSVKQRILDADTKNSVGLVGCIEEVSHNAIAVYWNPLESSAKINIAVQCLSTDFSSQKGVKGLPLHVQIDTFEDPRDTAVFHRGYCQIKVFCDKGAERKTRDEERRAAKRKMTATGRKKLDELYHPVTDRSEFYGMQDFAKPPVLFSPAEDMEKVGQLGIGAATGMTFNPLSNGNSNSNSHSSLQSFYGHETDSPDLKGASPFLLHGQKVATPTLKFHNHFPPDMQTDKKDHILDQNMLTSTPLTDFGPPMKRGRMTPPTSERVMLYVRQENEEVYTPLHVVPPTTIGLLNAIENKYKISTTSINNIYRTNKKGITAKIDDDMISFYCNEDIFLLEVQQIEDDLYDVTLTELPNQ
runDescription: EMSA; EMSA, 20 ul, 30 min, room temperature; 5X buffer as printed: 20% glycerol, 1 mg/ml BSA, 2.5 mM EDTA, '50mM 1M tris' pH 7.5, 50 mM KCl, 5 mM MgCl2, 2.5 mM DTT, 90 ug/ml poly(dI-dC); proteins 100-200 ng
recordedConditions: protein: recombinant;recombinant; tags: 6xHis;6xHis; copies: 1;2
reportedProperty: binding result

motif-30 WT (dsDNA) DNA 1: GAAACAGGATAACCATAACTAATCC DNA 2: GGATTAGTTATGGTTATCCTGTTTC: binds
motif-33 (dsDNA) DNA 1: TACTGCCTGATTAGTGTAAATAATTGCCAGTCCTTG DNA 2: CAAGGACTGGCAATTATTTACACTAATCAGGCAGTA: binds
